molecular target: sigma-1 binding site (Cavia porcellus, UniProt Q60492); construct: Guinea pig whole membrane preparations (P2 microsomal fraction); from tissue; host or cells: guinea pig membranes (P2 microsomal fraction), as described by Weber et al; brain inferred from the sister test b489; test: biochemical; set-up: species or system guinea pig; settings: guinea pig, microsomes
Sequence (Q60492 whole entry): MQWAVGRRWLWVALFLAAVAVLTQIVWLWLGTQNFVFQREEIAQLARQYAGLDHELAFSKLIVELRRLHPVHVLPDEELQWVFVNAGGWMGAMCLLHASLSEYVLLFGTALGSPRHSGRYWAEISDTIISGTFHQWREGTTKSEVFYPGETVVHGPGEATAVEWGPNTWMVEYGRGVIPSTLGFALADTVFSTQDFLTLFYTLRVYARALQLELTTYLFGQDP
endpoint label: S1/S2 Ratio
Reply with the value as a number alone.

Use these answered entries as a reference point.
molecule	S1/S2 Ratio
c1ccc(CCCCCNCCCCc2ccccc2)cc1	0.007
c1ccc(CCCCCCCNCCc2ccccc2)cc1	0.044
CN1CCN(CC/C=C\c2ccccc2)CC1	0.022

Data request: Find the measured S1/S2 Ratio of `c1ccc(CCCCCCCNCc2ccccc2)cc1` with sigma-1 binding site (Cavia porcellus, UniProt Q60492) as test system.
Data returned: 0.060

Data request: Find the measured S1/S2 Ratio of `CN1CCN(CC/C=C/c2ccccc2)CC1` with sigma-1 binding site (Cavia porcellus, UniProt Q60492) as test system.
Data returned: 0.011

Data request: Find the measured S1/S2 Ratio of COc1ccc2c(c1)[C@]13CCCC[C@@H]1[C@H](C2)N(C)CC3 [Dextromethorphan, reference compound] with sigma-1 binding site (Cavia porcellus, UniProt Q60492) as test system.
Data returned: 0.035

Data request: Find the measured S1/S2 Ratio of CC(Cc1ccc(I)cc1)NCCCc1ccccc1 (racemic) with sigma-1 binding site (Cavia porcellus, UniProt Q60492) as test system.
Data returned: 0.232

Data request: Find the measured S1/S2 Ratio of `C[C@@H](Cc1ccccc1)N(CCCc1ccccc1)Cc1ccccc1` with sigma-1 binding site (Cavia porcellus, UniProt Q60492) as test system.
Data returned: 0.272

----------
target: sigma-1 binding site (Cavia porcellus); construct: Guinea pig whole membrane preparations (P2 microsomal fraction); from tissue; host or cells: guinea pig membranes (P2 microsomal fraction), as described by Weber et al; brain inferred from the sister test b489; assay: biochemical; parameters: species or system guinea pig; conditions: Table 12; read-out: IC50 (nM) at sigma-1
endpoint label: IC50 (nM)
API: value field is a number in nM; no unit string.

Use these answered entries as a reference point.
compound	endpoint label	value units	test value
CCOc1ccc(CC(C)NCCCc2ccccc2)cc1 (racemic)	IC50	nM	3.4
CC(Cc1cccc(Br)c1)NCCCc1ccccc1 (racemic)	IC50	nM	9.6
CC(Cc1ccc(I)cc1)NCCCc1ccccc1 (racemic)	IC50	nM	17.7

Next compound, please.
Data request: Find the measured IC50 of CC(Cc1cccc(C(F)(F)F)c1)NCCCc1ccccc1 (racemic) with sigma-1 binding site (Cavia porcellus) as test system.
Data returned: 8.8

----------
molecular target: sigma receptor; assay: Sigma receptor binding, [^3 H]DTG, brain membranes (both sigma-1 and sigma-2 sites); parameters: species or system guinea pig; settings: Table 7; Phenyl-(CH2)x -NH--(CH2)y -Phenyl; read-out: Ki
endpoint label: Ki (nM)
API: value field is a number in nM; no unit string.

Use these answered entries as a reference point.
c1ccc(CCCCNCCc2ccccc2)cc1 5.5
c1ccc(CCCCCCCNCCc2ccccc2)cc1 4.1
c1ccc(CCCCCNCCc2ccccc2)cc1 2.4

Data request: Tell me its Ki given `c1ccc(CCCNCCc2ccccc2)cc1` as the entry.
Data returned: 19

Data request: Tell me its Ki given `c1ccc(CCCCNCCCCc2ccccc2)cc1` as the entry.
Data returned: 6.7

Data request: Tell me its Ki given `c1ccc(CCCCCCNCCCc2ccccc2)cc1` as the entry.
Data returned: 2.6

Data credit: patent US6057371A
